experiment: ATG_ISRE_CIS: Attagene CIS-FACTORIAL HepG2 Assay for human Interferon Regulatory Factor 1 (IRF1) binding to an Interferon-Stimulated Response Element (ISRE) (AID 2282948); settings: HepG2 ISRE cis-reporter (Attagene), mRNA transcription readout; actives raise or lower the signal
Calls of active or inactive are those of the source. The calls were made as follows: active = hit-call score of the fitted dose curve at least 0.9, where 1 is the maximum; inactive = score below 0.9.
Labels: Y = active, N = inactive

INSERT INTO measurements (compound, label_value) VALUES
  ('O=C(CCl)c1ccccc1', 'Y'),
  ('CC(=O)/C=C/c1ccccc1', 'Y'),
  ('BrCBr', 'N'),
  ('CC1(C)[C@H](C(=O)O[C@H](C#N)c2cccc(Oc3ccccc3)c2)[C@@H]1C=C(Br)Br', 'N'),
  ('O=P1(NCCCl)OCCCN1CCCl (centres undefined)', 'N'),
  ('CC1OC(C)OC(C)O1 (centres undefined)', 'N'),
  ('CSc1nc(N=[N+]=[N-])nc(NC(C)C)n1', 'N'),
  ('C=C(Cl)Cl', 'N'),
  ('[CH3][Sn]([CH3])([Cl])[Cl]', 'N'),
  ('CCC(C)c1cc([N+](=O)[O-])cc([N+](=O)[O-])c1OC(=O)C=C(C)C (centres undefined)', 'Y'),
  ('CCOC(=O)C1OC1(C)c1ccccc1 (centres undefined)', 'N'),
  ('CCN(CC)C(=S)S', 'N'),
  ('COc1ccc(CO)cc1', 'N'),
  ('S=c1[nH]c2ccccc2[nH]1', 'N');
